Target: HDAC6 (Homo sapiens, UniProt Q9UBN7)
Sequence (Q9UBN7 1-1215): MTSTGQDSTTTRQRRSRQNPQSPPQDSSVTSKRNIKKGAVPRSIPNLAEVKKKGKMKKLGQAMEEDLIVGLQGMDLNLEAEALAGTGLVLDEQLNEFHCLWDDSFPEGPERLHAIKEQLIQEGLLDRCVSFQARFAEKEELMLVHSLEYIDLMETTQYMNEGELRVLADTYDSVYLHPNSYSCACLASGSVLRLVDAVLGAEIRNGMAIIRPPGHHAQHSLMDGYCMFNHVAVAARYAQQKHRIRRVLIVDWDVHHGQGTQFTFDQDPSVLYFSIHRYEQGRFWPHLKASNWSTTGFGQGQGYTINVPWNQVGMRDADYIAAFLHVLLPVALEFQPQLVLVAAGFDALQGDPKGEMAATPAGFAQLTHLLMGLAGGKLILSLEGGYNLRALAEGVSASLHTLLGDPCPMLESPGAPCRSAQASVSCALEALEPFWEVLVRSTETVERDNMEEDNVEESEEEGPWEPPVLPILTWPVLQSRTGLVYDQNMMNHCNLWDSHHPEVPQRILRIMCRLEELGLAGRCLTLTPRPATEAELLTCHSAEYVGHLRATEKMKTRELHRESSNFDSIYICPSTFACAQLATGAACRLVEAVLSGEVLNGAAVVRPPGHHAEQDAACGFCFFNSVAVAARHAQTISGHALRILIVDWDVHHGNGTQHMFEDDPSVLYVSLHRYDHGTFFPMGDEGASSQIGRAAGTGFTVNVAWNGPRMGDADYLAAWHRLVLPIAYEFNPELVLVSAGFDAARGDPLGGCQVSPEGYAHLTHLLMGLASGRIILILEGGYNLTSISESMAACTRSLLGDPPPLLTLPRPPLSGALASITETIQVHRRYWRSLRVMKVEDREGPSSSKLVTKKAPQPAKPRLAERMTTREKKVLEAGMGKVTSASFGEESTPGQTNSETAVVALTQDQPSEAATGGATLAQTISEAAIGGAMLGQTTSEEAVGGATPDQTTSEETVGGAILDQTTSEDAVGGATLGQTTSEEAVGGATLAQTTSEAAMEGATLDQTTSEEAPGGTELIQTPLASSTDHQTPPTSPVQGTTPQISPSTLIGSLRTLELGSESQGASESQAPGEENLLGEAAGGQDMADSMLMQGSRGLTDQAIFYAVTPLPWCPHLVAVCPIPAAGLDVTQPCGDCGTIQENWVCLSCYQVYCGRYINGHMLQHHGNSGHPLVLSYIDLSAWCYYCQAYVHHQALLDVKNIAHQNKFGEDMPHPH
Experiment: HDAC activity assay (microfluidics mobility shift), HDAC6
Details: covalent dual inhibitors
Here the recorded log10(IC50) is given for each entry.
Note: values are log10 of IC50 expressed in µM.

The examples below pair each entry with its known result.
CC(C)C[C@H](NC(=O)[C@H](Cc1ccccc1)NC(=O)c1ccc(C(=O)NO)cc1)B1OC2C[C@H]3C[C@H](C3(C)C)[C@@]2(C)O1 (stereo partly shown) [AMC-3-017]    -0.70
CC(C)C[C@H](NC(=O)CNC(=O)c1ccc(C(=O)NOC(=O)Nc2ccccc2)cc1)B1OC2C[C@H]3C[C@H](C3(C)C)[C@@]2(C)O1 (stereo partly shown) [AMC-3-030]    -0.05

Input line: Fill in: log10(IC50) of CCNC(=O)ONC(=O)c1ccc(C(=O)NCC(=O)N[C@@H](CC(C)C)B2OC3C[C@H]4C[C@H](C4(C)C)[C@@]3(C)O2)cc1 (stereo partly shown) [AMC-3-048] is ___
Output line: 0.73

Input line: Fill in: log10(IC50) of CC(C)C[C@H](NC(=O)[C@H](Cc1ccccc1)NC(=O)c1ccc(C(=O)NOC(=O)NCc2ccccc2)cc1)B1OC2C[C@H]3C[C@H](C3(C)C)[C@@]2(C)O1 (stereo partly shown) [AMC-3-033] is ___
Output line: 0.80

Input line: Fill in: log10(IC50) of CCNC(=O)ONC(=O)c1ccc(C(=O)N[C@@H](Cc2ccccc2)C(=O)N[C@@H](CC(C)C)B2OC3C[C@H]4C[C@H](C4(C)C)[C@@]3(C)O2)cc1 (stereo partly shown) [AMC-3-019] is ___
Output line: 0.91

Input line: Fill in: log10(IC50) of CC(C)C[C@H](NC(=O)CNC(=O)c1ccc(C(=O)NO)cc1)B1OC2C[C@H]3C[C@H](C3(C)C)[C@@]2(C)O1 (stereo partly shown) [AMC-3-031] is ___
Output line: -0.59

* * *

target: HDAC6 (Homo sapiens); assay: HDAC activity assay (microfluidics mobility shift), HDAC6; type: biochemical; settings: compound concentration 1 μM; non-covalent dual inhibitors
Use 10% as the dividing line for inhibition at 1 µM, with the line itself on the condition met side and lower values as condition not met.

C[C@H](NC(=O)[C@H](CC(=O)NCC(C)(C)C)NC(=O)C(=O)c1c[nH]c2ccccc12)C(=O)NCc1ccc(F)cc1F    condition met
C[C@H](NC(=O)[C@H](CC(=O)NCC(C)(C)C)NC(=O)CCCCCCC(=O)O)C(=O)NCc1ccc(F)cc1F    condition not met
C[C@H](NC(=O)[C@H](CC(=O)NCC(C)(C)C)NC(=O)CCC(=O)Nc1ccc(C(=O)NO)cc1)C(=O)NCc1ccc(F)cc1F    condition met
COC(=O)CCCCCCC(=O)N[C@@H](CC(=O)NCC(C)(C)C)C(=O)N[C@@H](C)C(=O)NCc1ccc(F)cc1F    condition not met

Next item in the queue.
Input line: Is inhibition at 1 µM for C[C@H](NC(=O)[C@H](CC(=O)NCC(C)(C)C)NC(=O)c1ccc(C(=O)O)cc1)C(=O)NCc1ccc(F)cc1F at or above 10%?
Output line: condition not met

* * *

target: HDAC6 (Homo sapiens); experiment: HDAC activity assay (microfluidics mobility shift), HDAC6; format: biochemical; details: covalent dual inhibitors
observable: HDAC1/HDAC6 (HDAC1 IC50/HDAC6 IC50, selectivity for HDAC6)
Number only, no unit.

The examples below pair each entry with its known result.
CC(C)C[C@H](NC(=O)[C@H](Cc1ccccc1)NC(=O)c1ccc(C(=O)NOC(=O)NCc2ccccc2)cc1)B1OC2C[C@H]3C[C@H](C3(C)C)[C@@]2(C)O1 (stereo partly drawn)    4.75
CC(C)C[C@H](NC(=O)CNC(=O)c1ccc(C(=O)NOC(=O)NCc2ccccc2)cc1)B1OC2C[C@H]3C[C@H](C3(C)C)[C@@]2(C)O1 (stereo partly drawn)    8.77
CCNC(=O)ONC(=O)/C=C/c1ccc(C(=O)NCC(=O)N[C@@H](CC(C)C)B2OC3C[C@H]4C[C@H](C4(C)C)[C@@]3(C)O2)cc1 (stereo partly drawn)    2.30
CC(C)C[C@H](NC(=O)CNC(=O)c1ccc(C(=O)NO)cc1)B1OC2C[C@H]3C[C@H](C3(C)C)[C@@]2(C)O1 (stereo partly drawn)    20.4
CC(C)C[C@H](NC(=O)[C@H](Cc1ccccc1)NC(=O)c1ccc(C(=O)NO)cc1)B1OC2C[C@H]3C[C@H](C3(C)C)[C@@]2(C)O1 (stereo partly drawn)    14.3

Now turn to the next compound.
Input line: Fill in: HDAC1/HDAC6 (HDAC1 IC50/HDAC6 IC50, selectivity for HDAC6) of CC(C)C[C@H](NC(=O)[C@H](Cc1ccccc1)NC(=O)c1ccc(/C=C/C(=O)NO)cc1)B1OC2C[C@H]3C[C@H](C3(C)C)[C@@]2(C)O1 (stereo partly drawn) is ___
Output line: 0.93

* * *

target: HDAC6 (Homo sapiens, UniProt Q9UBN7); assay: HDAC activity assay (microfluidics mobility shift), HDAC6; assay type: biochemical; details: covalent dual inhibitors
Here the recorded IC50 is given for each entry.
Record the value in µM, omitting the unit from your answer.

CCNC(=O)ONC(=O)/C=C/c1ccc(C(=O)NCC(=O)N[C@@H](CC(C)C)B2OC3C[C@H]4C[C@H](C4(C)C)[C@@]3(C)O2)cc1 (stereo partly drawn) [AMC-3-055]    1.15
CC(C)C[C@H](NC(=O)CNC(=O)c1ccc(C(=O)NOC(=O)NCc2ccccc2)cc1)B1OC2C[C@H]3C[C@H](C3(C)C)[C@@]2(C)O1 (stereo partly drawn) [AMC-3-047]    3.42

Now turn to the next compound.
Input line: Fill in: IC50 of CC(C)C[C@H](NC(=O)[C@H](Cc1ccccc1)NC(=O)c1ccc(/C=C/C(=O)NO)cc1)B1OC2C[C@H]3C[C@H](C3(C)C)[C@@]2(C)O1 (stereo partly drawn) [AMC-3-041] is ___
Output line: 0.061

* * *

Here the recorded inhibition at 1 µM is given for each entry.
biological target: HDAC1 (Homo sapiens); test: HDAC activity assay (microfluidics mobility shift), HDAC1; assay type: biochemical; conditions: compound concentration 1 μM; non-covalent dual inhibitors
Sequence (Q13547 whole entry): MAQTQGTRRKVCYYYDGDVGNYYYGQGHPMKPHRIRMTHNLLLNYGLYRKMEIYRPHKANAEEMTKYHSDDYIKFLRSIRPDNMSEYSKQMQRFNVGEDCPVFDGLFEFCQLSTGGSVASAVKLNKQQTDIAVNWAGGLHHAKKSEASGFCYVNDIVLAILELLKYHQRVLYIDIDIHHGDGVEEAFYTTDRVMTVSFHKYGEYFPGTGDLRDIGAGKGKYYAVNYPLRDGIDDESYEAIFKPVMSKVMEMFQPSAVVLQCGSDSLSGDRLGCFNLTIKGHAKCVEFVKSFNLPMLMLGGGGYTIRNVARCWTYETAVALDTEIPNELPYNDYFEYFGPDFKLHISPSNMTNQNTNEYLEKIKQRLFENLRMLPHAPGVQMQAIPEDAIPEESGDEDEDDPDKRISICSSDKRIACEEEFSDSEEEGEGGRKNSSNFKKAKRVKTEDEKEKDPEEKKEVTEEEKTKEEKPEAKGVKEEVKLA
Record the value in %, omitting the unit from your answer.

The examples below pair each entry with its known result.
C[C@H](NC(=O)[C@H](CC(=O)NCC(C)(C)C)NC(=O)CCC(=O)Nc1ccc(C(=O)NO)cc1)C(=O)NCc1ccc(F)cc1F [AMC-2-036]    61
C[C@H](NC(=O)[C@H](CC(=O)NCC(C)(C)C)NC(=O)C(=O)c1c[nH]c2ccccc12)C(=O)NCc1ccc(F)cc1F [AMC-2-052]    41
C[C@H](NC(=O)[C@H](CC(=O)NCC(C)(C)C)NC(=O)CCCCCCC(=O)O)C(=O)NCc1ccc(F)cc1F [AMC-2-204]    3
C[C@H](NC(=O)[C@H](CC(=O)NCC(C)(C)C)NC(=O)c1ccc(C(=O)O)cc1)C(=O)NCc1ccc(F)cc1F [AMC-2-225]    -3
COC(=O)CCCCCCC(=O)N[C@@H](CC(=O)NCC(C)(C)C)C(=O)N[C@@H](C)C(=O)NCc1ccc(F)cc1F [AMC-2-198]    1
C[C@H](NC(=O)[C@H](CC(=O)NCC(C)(C)C)NC(=O)c1ccc(C(=O)Nc2ccccc2N)cc1)C(=O)NCc1ccc(F)cc1F [AMC-2-091]    65
C[C@H](NC(=O)[C@H](CC(=O)NCC(C)(C)C)NC(=O)CCCCCCC(=O)NO)C(=O)NCc1ccc(F)cc1F [AMC-2-067]    74

Now turn to the next molecule.
Input line: Fill in: inhibition at 1 µM of COC(=O)c1ccc(C(=O)N[C@@H](CC(=O)NCC(C)(C)C)C(=O)N[C@@H](C)C(=O)NCc2ccc(F)cc2F)cc1 [AMC-2-152] is ___
Output line: 3
